Data credit: ChEMBL document CHEMBL4184301

Assay: Selectivity index, ratio of CC50 for mouse […] cells to IC50 for human HL60 cells
Assay type: toxicity
Conditions: NIH/3T3 cells (printed NIH/313) and HL60 cells, read-out: Ratio CC50/IC50
selectivity ratio values for the compounds below.
quantity measured: selectivity ratio

CC1(C)C=Cc2c(cc3oc4c(O)cccc4c(=O)c3c2O)O1 ... 9.4
C/C=C(\C)C(=O)c1c(OC)c2c(c3c(-c4ccccc4)cc(=O)oc13)OC1C2C1(C)C (centres undefined) ... 8.6
C/C=C(\C)C(=O)c1c(O)c(/C(=C/C(=O)O)c2ccccc2)c2c(c1OC)C=CC(C)(C)O2 ... 19.2
CC1(C)C=Cc2c(cc3oc4c(O)c(O)ccc4c(=O)c3c2O)O1 [JACAREUBIN] ... 10.2

###

Assay: Cytotoxicity against mouse NIH/3T3 cells after 48 hrs by CCK8 assay
Assay type: cell-based, NIH3T3
CC50 at 48 h values for the compounds below.
quantity measured: CC50 at 48 h (µM)

C/C=C(\C)C(=O)c1c(O)c(/C(=C/C(=O)O)c2ccccc2)c2c(c1OC)C=CC(C)(C)O2 ... 41.1
CC1(C)C=Cc2c(cc3oc4c(O)c(O)ccc4c(=O)c3c2O)O1 ... 10.2
CC1(C)C=Cc2c(cc3oc4c(O)cccc4c(=O)c3c2O)O1 ... 25.3
C/C=C(\C)C(=O)c1c(OC)c2c(c3c(-c4ccccc4)cc(=O)oc13)OC1C2C1(C)C (centres undefined) ... 22.3

###

pIC50 values for the compounds below.
Test system: HL-60
Assay: Antiproliferative activity against human HL60 cells after 48 hrs by CCK8 assay
Assay type: functional, cell-based
Details: HL-60, 48 h
pIC50: −log10 of the molar value.
quantity measured: pIC50

CC(C)=CCc1c2c(c3oc(=O)cc(-c4ccccc4)c3c1O)C(=O)[C@H](C)[C@@H](C)O2 ... 5.00
CC1(C)C=Cc2c(cc3oc4c(O)cccc4c(=O)c3c2O)O1 ... 5.57
C[C@H]1Oc2c3c(c4c(-c5ccccc5)cc(=O)oc4c2C(=O)[C@@H]1C)OC(C)(C)C=C3 ... 4.45
O=c1cc(-c2ccc(O)c(-c3c(O)cc(O)c4c(=O)cc(-c5ccc(O)cc5)oc34)c2)oc2cc(O)cc(O)c12 ... 4.29
C[C@@H]1C(=O)c2c(O)c(C(=CC(=O)O)c3ccccc3)c3c(c2O[C@@H]1C)C=CC(C)(C)O3 (mixture of isomers) ... 4.45
CC1(C)C=Cc2c(cc3oc4c(O)c(O)ccc4c(=O)c3c2O)O1 ... 6.00
C/C=C(\C)C(=O)c1c(OC)c2c(c3c(-c4ccccc4)cc(=O)oc13)OC1C2C1(C)C (stereo not given) ... 5.59
CC(C)=CCc1c(O)cc2oc3c(O)cccc3c(=O)c2c1O ... 5.20
CC(=O)O[C@H]1C(=O)[C@@]2(C)[C@H]([C@H](OC(=O)c3ccccc3)[C@]3(O)C[C@H](OC(=O)[C@H](O)[C@@H](NC(=O)c4ccccc4)c4ccccc4)C(C)=C1C3(C)C)[C@]1(OC(C)=O)CO[C@@H]1C[C@@H]2O ... 8.59
C[C@H]1Oc2c3c(c(C(=CC(=O)O)c4ccccc4)c(O)c2C(=O)[C@@H]1C)OC(C)(C)C=C3 (mixture of isomers) ... 4.61
C/C=C(\C)C(=O)c1c(O)c(/C(=C/C(=O)O)c2ccccc2)c2c(c1OC)C=CC(C)(C)O2 ... 5.66
O=c1cc(-c2ccc(O)cc2)oc2cc(O)cc(O)c12 ... 4.65
C=C(C)C(O)Cc1c(O)cc2c(=O)c3cccc(O)c3oc2c1O (stereo not given) ... 4.43
CO[C@H]1c2c(c3c(c4c(-c5ccccc5)cc(=O)oc24)OC(C)(C)C=C3)O[C@H](C)[C@H]1C ... 4.89

###

Test system: HL-60
Assay: Antiproliferative activity against human HL60 cells after 48 hrs by CCK8 assay
Type: functional, cell-based
Conditions: HL-60, 48 h
IC50 values for the compounds below.
quantity measured: IC50 (µM)

C/C=C(/C)C(=O)c1c2c(c(OC)c3c(-c4ccccc4)cc(=O)oc13)C=CC(C)(C)O2 ... 18.3
COC(=O)C=C(c1ccccc1)c1c(O)c2c(c3c1OC(C)(C)C=C3)O[C@H](C)[C@@H](C)C2=O (mixture of isomers) ... 10.7
CO[C@@]12[C@H](COC(N)=O)C3=C(C(=O)C(C)=C(N)C3=O)N1C[C@@H]1N[C@@H]12 [MITOMYCIN] ... 0.19
